Quick reference for log10 IC50 among some molecules
# assayed_target: NPM-ALK (Homo sapiens, UniProt Q9UM73)
# Construct: nucleophosmin (NPM, NPM1; human P06748) fusion partner; the other entry of the earlier key: Npm1 (Q61937, Nucleophosmin)
# Sequence (Q9UM73 with tags, fused parts or gaps): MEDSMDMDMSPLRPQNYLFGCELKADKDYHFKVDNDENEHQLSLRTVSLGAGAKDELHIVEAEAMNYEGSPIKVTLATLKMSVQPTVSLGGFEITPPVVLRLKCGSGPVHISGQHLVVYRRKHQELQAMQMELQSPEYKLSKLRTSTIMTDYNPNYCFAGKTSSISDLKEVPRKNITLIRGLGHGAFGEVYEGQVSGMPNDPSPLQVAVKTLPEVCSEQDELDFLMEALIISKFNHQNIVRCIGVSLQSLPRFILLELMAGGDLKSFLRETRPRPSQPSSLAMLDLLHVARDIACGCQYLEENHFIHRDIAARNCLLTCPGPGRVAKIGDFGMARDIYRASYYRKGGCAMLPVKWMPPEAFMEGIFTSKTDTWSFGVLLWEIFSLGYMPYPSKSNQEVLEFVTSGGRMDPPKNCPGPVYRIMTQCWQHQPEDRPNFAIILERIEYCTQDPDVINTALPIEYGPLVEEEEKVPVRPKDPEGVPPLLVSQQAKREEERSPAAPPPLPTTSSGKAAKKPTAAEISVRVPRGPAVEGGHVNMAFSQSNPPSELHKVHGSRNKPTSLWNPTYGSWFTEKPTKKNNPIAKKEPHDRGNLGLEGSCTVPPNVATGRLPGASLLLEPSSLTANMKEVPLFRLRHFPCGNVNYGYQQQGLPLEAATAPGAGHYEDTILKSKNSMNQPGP
# assay_method_text: NPM-ALK BaF3 assay (growth inhibition of BaF3-NPM-ALK cells)
# test_conditions: human NPM-ALK overexpressing murine BaF3 cells
# Procedure: The expression of NPM-ALK may be achieved by transfecting the BaF3 cell line with an expression vector pClneo™ (Promega Corp., Madison Wis., USA) coding for NPM-ALK and subsequent selection of G418 resistant cells. Non-transfected BaF3 cells depend on IL-3 for cell survival. […] The inhibitory activity of the compounds of the invention may be determined as follows. […] The growth of the BaF3-NPM-ALK cells is measured by means of YOPRO™ staining [T Idziorek et al. J. Immunol. […]
Plainly stated, the numbers are log10 of IC50 given in nM.

Some molecules with known log10 IC50 results, for comparison:
## Task Reported log10 IC50 for NPM-ALK (Homo sapiens, UniProt Q9UM73), given "COc1cc(C2CCN(C(=O)[C@H](C)NCCO)CC2)c(C)cc1Nc1nc(Nc2ccccc2S(=O)(=O)C(C)C)n2nccc2n1" ?
## Result 1.57

## Task Give the reported log10 IC50 for "COc1cc(C2CCN(C(=O)CO)CC2)c(C)cc1Nc1nc(Nc2ccccc2S(=O)(=O)C(C)C)n2nccc2n1" (system: NPM-ALK (Homo sapiens, UniProt Q9UM73)).
## Result 1.60

## Task Reported log10 IC50 for NPM-ALK (Homo sapiens, UniProt Q9UM73), given "Cc1cc(C2CCNCC2)c(Cl)cc1Nc1nc(Nc2ccccc2S(=O)(=O)C(C)C)n2nccc2n1" ?
## Result 3.15

## Task # value lookup — system NPM-ALK (Homo sapiens, UniProt Q9UM73), readout log10 IC50, item "COc1cc(C2CCN(C(=O)C3(N)CC3)CC2)c(C)cc1Nc1nc(Nc2ccccc2S(=O)(=O)C(C)C)n2nccc2n1"
## Result 1.59

## Task Report log10 IC50 for "COc1cc(C2CCOCC2)c(C)cc1Nc1nc(Nc2ccccc2S(=O)(=O)C(C)C)n2nccc2n1" tested on NPM-ALK (Homo sapiens, UniProt Q9UM73).
## Result 2.14

Continuing:
## Task Value wanted: log10 IC50 (NPM-ALK (Homo sapiens, UniProt Q9UM73)) of entry "CCN(CC)CCC(=O)N1CCC(c2cc(OC)c(Nc3nc(Nc4ccccc4S(=O)(=O)C(C)C)n4nccc4n3)cc2C)CC1"
## Result 1.54

## Task What reported log10 IC50 corresponds to "COc1cc(C2CCN(CCC(=O)N3CCC3)CC2)c(C)cc1Nc1nc(Nc2ccccc2S(=O)(=O)C(C)C)n2nccc2n1" on NPM-ALK (Homo sapiens, UniProt Q9UM73)?
## Result 1.18

## Task For NPM-ALK (Homo sapiens, UniProt Q9UM73), provide log10 IC50 of "Cc1cc(C2CCN(C(=O)CCN(C)C)CC2)ccc1Nc1nc(Nc2ccccc2S(=O)(=O)C(C)C)n2nccc2n1" please.
## Result 2.11

## Task Request body: readout log10 IC50, system NPM-ALK (Homo sapiens, UniProt Q9UM73), query "COc1cc(C2CCN(C(=O)CN3CCC3)CC2)c(C)cc1Nc1nc(Nc2ccccc2S(=O)(=O)C(C)C)n2nccc2n1" . Return the value.
## Result 1.41

## Task Could you share what log10 IC50 was measured for "COc1cc(C2CCN(C(=O)[C@H](C)N(C)CCO)CC2)c(C)cc1Nc1nc(Nc2ccccc2S(=O)(=O)C(C)C)n2nccc2n1" , tested on NPM-ALK (Homo sapiens, UniProt Q9UM73)?
## Result 1.34

## Task Kindly state the measured log10 IC50 obtained for "COc1cc(C2CCN(C(=O)CN3CCOCC3)CC2)c(C)cc1Nc1nc(Nc2ccccc2S(=O)(=O)C(C)C)n2nccc2n1" with NPM-ALK (Homo sapiens, UniProt Q9UM73).
## Result 1.67

## Task Hello, I am looking for reported log10 IC50 with NPM-ALK (Homo sapiens, UniProt Q9UM73) for "COc1cc(C2CCN(C(=O)[C@@H](N)CO)CC2)c(C)cc1Nc1nc(Nc2ccccc2S(=O)(=O)C(C)C)n2nccc2n1" . Could you help?
## Result 1.77

## Task Query the reported log10 IC50 for NPM-ALK (Homo sapiens, UniProt Q9UM73); item: "CCCNCC(=O)N1CCC(c2cc(OC)c(Nc3nc(Nc4ccccc4S(=O)(=O)C(C)C)n4nccc4n3)cc2C)CC1"
## Result 1.20

## Task What log10 IC50 appears in the records for this molecule with NPM-ALK (Homo sapiens, UniProt Q9UM73)? "CCNCC(=O)N1CCC(c2cc(OC)c(Nc3nc(Nc4ccccc4S(=O)(=O)C(C)C)n4nccc4n3)cc2C)CC1"
## Result 1.18

## Task log10 IC50 of "CC(C)S(=O)(=O)c1ccccc1Nc1nc(Nc2ccc(C3CCN(CC(N)=O)CC3)cc2)nc2ccnn12" on NPM-ALK (Homo sapiens, UniProt Q9UM73)?
## Result 2.11

## Task Give NPM-ALK (Homo sapiens, UniProt Q9UM73) log10 IC50 for "Cc1cc(Nc2nc(Nc3ccccc3S(=O)(=O)C(C)C)n3nccc3n2)ccc1C1CCN(CCS(C)(=O)=O)CC1"
## Result 1.66

---

# assayed_target: NPM-ALK (Homo sapiens)
# Construct: nucleophosmin (NPM, NPM1; human P06748) fusion partner; the other entry of the earlier key: Npm1 (Q61937, Nucleophosmin)
# assay_method_text: NPM-ALK BaF3 assay (growth inhibition of BaF3-NPM-ALK cells)
# test_conditions: human NPM-ALK overexpressing murine BaF3 cells
readout_name: pIC50
A value of pIC50 is the negative decimal logarithm of a concentration given in moles per litre.

## Task Which measured pIC50 value corresponds to COc1cc(C2CCN(C(=O)CN3CCCC3)CC2)c(C)cc1Nc1nc(Nc2ccccc2S(=O)(=O)C(C)C)n2nccc2n1 [Ex 15] ?
## Result 7.51

## Task Request the reported pIC50 associated with COC[C@H](N)C(=O)N1CCC(c2cc(OC)c(Nc3nc(Nc4ccccc4S(=O)(=O)C(C)C)n4nccc4n3)cc2C)CC1 [Ex 94]
## Result 7.80

## Task I am curious: what pIC50 value has been reported for COc1cc(C2CCN(C(=O)CN3CC[C@@H](O)C3)CC2)c(C)cc1Nc1nc(Nc2ccccc2S(=O)(=O)C(C)C)n2nccc2n1 [Ex 60] ?
## Result 7.51

Further cases:
## Task For COc1cc(C2CCN(C(=O)[C@@H]3COC(C)(C)CN3)CC2)c(C)cc1Nc1nc(Nc2ccccc2S(=O)(=O)C(C)C)n2nccc2n1 [Ex 87] , what is its reported pIC50?
## Result 7.54

## Task What value of pIC50 has been reported for the following compound? COc1cc(C2CCN(C(=O)CN3CC[C@H](F)C3)CC2)c(C)cc1Nc1nc(Nc2ccccc2S(=O)(=O)C(C)C)n2nccc2n1 [Ex 76]
## Result 7.12

## Task Request the reported pIC50 associated with Cc1cc(CN2CCC(c3cc(OC(C)C)c(Nc4nc(Nc5ccccc5S(=O)(=O)C(C)C)n5nccc5n4)cc3C)CC2)[nH]n1 [Ex 5]
## Result 6.85

## Task Please look up its pIC50: COc1cc(C2CCN(C(=O)C3CCCN3C)CC2)c(C)cc1Nc1nc(Nc2ccccc2S(=O)(=O)C(C)C)n2nccc2n1 (centres unmarked) [Ex 34]
## Result 7.60

## Task May I ask what pIC50 has been recorded for CCNC1(C(=O)N2CCC(c3cc(OC)c(Nc4nc(Nc5ccccc5S(=O)(=O)C(C)C)n5nccc5n4)cc3C)CC2)CC1 [Ex 22] ?
## Result 7.64

## Task Quick one: pIC50 for CNC(C)(C)C(=O)N1CCC(c2cc(OC)c(Nc3nc(Nc4ccccc4S(=O)(=O)C(C)C)n4nccc4n3)cc2C)CC1 [Ex 27] ?
## Result 7.36

## Task Give the measured pIC50 of COc1cc(C2CCN(C(=O)CCCN3CCOCC3)CC2)c(C)cc1Nc1nc(Nc2ccccc2S(=O)(=O)C(C)C)n2nccc2n1 [Ex 101] .
## Result 7.51

## Task Given CN[C@@H](C)C(=O)N1CCC(c2cc(OC)c(Nc3nc(Nc4ccccc4S(=O)(=O)C(C)C)n4nccc4n3)cc2C)CC1 [Ex 24] , state its recorded pIC50.
## Result 7.68

---

# pIC50 values compiled below
# assayed_target: NPM-ALK (Homo sapiens)
# Construct: nucleophosmin (NPM, NPM1; human P06748) fusion partner; the other entry of the earlier key: Npm1 (Q61937, Nucleophosmin)
# assay_method_text: NPM-ALK BaF3 assay (growth inhibition of BaF3-NPM-ALK cells)
# test_conditions: human NPM-ALK overexpressing murine BaF3 cells
In simple prose, pIC50 is minus the logarithm base ten of a concentration in moles per litre.

# example entries with known answers
## Task // returns reported pIC50 for input "COc1cc(C2CCN(C(=O)CN3CCCCC3)CC2)c(C)cc1Nc1nc(Nc2ccccc2S(=O)(=O)C(C)C)n2nccc2n1"
## Result 7.59

## Task Bench note: what pIC50 did "CNCCC(=O)N1CCC(c2cc(OC)c(Nc3nc(Nc4ccccc4S(=O)(=O)C(C)C)n4nccc4n3)cc2C)CC1" show?
## Result 7.17

## Task Quick one: pIC50 for "COc1cc(C2CCN(C(=O)[C@@H]3COCCN3)CC2)c(C)cc1Nc1nc(Nc2ccccc2S(=O)(=O)C(C)C)n2nccc2n1" ?
## Result 7.66

## Task Request the reported pIC50 associated with "COc1cc(C2CCN(C(=O)[C@@H](C)N3CCCC3)CC2)c(C)cc1Nc1nc(Nc2ccccc2S(=O)(=O)C(C)C)n2nccc2n1"
## Result 7.49

## Task Consider the compound "COc1cc(C2CCN(C(=O)[C@H](C)NC(C)C)CC2)c(C)cc1Nc1nc(Nc2ccccc2S(=O)(=O)C(C)C)n2nccc2n1" and give its measured pIC50.
## Result 7.55

## Task Requested read-out: pIC50. Entry: "COc1cc(C2CCN(CCC(N)=O)CC2)c(C)cc1Nc1nc(Nc2ccccc2S(=O)(=O)C(C)C)n2nccc2n1"
## Result 7.82

Attention now turns to another entry.
## Task What pIC50 value was documented for this compound, "COc1cc(C2CCN(C(=O)CN3CC(O)C3)CC2)c(C)cc1Nc1nc(Nc2ccccc2S(=O)(=O)C(C)C)n2nccc2n1" ?
## Result 6.71
